Please go through the items and note down their viability at 24 h, 0.9 µg/ml.
- methodSummary: Cell viability assay (MTT), VERO
- Format: cell-based, Cercopithecus aethiops
- measurementParameters: African green monkey (Cercopithecus aethiops), VERO kidney epithelial cells, 0.9 µg/ml
Answers are plain numbers, in %.

>>> observedvalue("C/C(=N\\Nc1nc(-c2ccc(Br)cc2)cs1)c1ccc(Nc2nc(N)nc(N)n2)cc1 [Compound 4d]")
99.9

Report viability at 24 h, 0.9 µg/ml for every entry below.
1. C/C(=N\Nc1nc(-c2ccc(I)cc2)cs1)c1ccc(Nc2nc(N)nc(N)n2)cc1 [Compound 4e]
2. C/C(=N\NC(N)=S)c1ccc(Nc2nc(N)nc(N)n2)cc1 [Compound 3]

Result:
1. 100
2. 97.2
